- systemName: UniProt P51449
- methodDescription: RORγt (full-length human) reporter assay, conditions A or B, HEK293T cells
- Assay type: cell-based
- condition: HEK-293T; 0.67 μM compound concentration (footnote ****); read-out: RORγt (FL) Reporter Assay A or B, % inhibition
- Experimental: RORγt (Full-Length Human) Reporter Assay: HEK293T cells were plated at 35,000 per well in 96-well plate in medium of DMEM with 10% FBS. […] Firefly luciferase luminescence was measured using a BMG Pherastar plate reader. […] Renilla luminescence was measured using a BMG Pherastar plate reader. […] IC50s were generated by plotting final Renilla normalized data against compound concentration and percent inhibition was calculated against DMSO control. […]
propertyLabel: inhibition at 0.67 µM (%)

Here is how some molecules turned out for inhibition at 0.67 µM.
- molecule: "CCn1nc(C(=O)NC[C@]2(O)CC[C@@H](S(C)(=O)=O)CC2)c(Cl)c1-c1ccc(C[C@H](C)C(F)(F)F)cc1OC (single isomer, unassigned)"
  unitDescriptor: "%"
  inhibition at 0.67 µM: 97
- molecule: "CCn1nc(C(=O)NC[C@H]2CC[C@H](S(C)(=O)=O)CC2)c(Cl)c1-c1ccc(C[C@@H](C)C(F)(F)F)cc1OC (single isomer, unassigned)"
  unitDescriptor: "%"
  inhibition at 0.67 µM: 99
- molecule: "CCCn1nc(C(=O)NC[C@H]2CC[C@H](S(C)(=O)=O)CC2)c(Cl)c1-c1ccc(C[C@@H](C)C(F)(F)F)cc1OC (single isomer, unassigned)"
  unitDescriptor: "%"
  inhibition at 0.67 µM: 99
- molecule: "CCn1nc(C(=O)NC[C@H]2CC[C@H](S(C)(=O)=O)CC2)c(Cl)c1-c1ccc(C[C@H](C)C(F)(F)F)cc1OC (single isomer, unassigned)"
  unitDescriptor: "%"
  inhibition at 0.67 µM: 98
- molecule: "CCn1nc(C(=O)NC[C@H]2CC[C@H](S(C)(=O)=O)CC2)c(C#N)c1-c1ccc(CC(C)(C)C(F)(F)F)cc1OC"
  unitDescriptor: "%"
  inhibition at 0.67 µM: 94
- molecule: "[2H]C([2H])([2H])Oc1cc(CC(C)(C)C(F)(F)F)ccc1-c1c(Cl)c(C(=O)NC[C@H]2CC[C@H](S(C)(=O)=O)CC2)nn1CC"
  unitDescriptor: "%"
  inhibition at 0.67 µM: 93
- molecule: "CCn1nc(C(=O)NC[C@]2(O)CC[C@@H](S(C)(=O)=O)CC2)c(Cl)c1-c1ccc(CC(C)(C)C(F)(F)F)cc1"
  unitDescriptor: "%"
  inhibition at 0.67 µM: 83
- molecule: "CCn1nc(C(=O)NC[C@H]2CC[C@H](S(C)(=O)=O)CO2)c(Cl)c1-c1ccc(CC(C)(C)C(F)(F)F)cc1OC(F)F (single isomer, unassigned)"
  unitDescriptor: "%"
  inhibition at 0.67 µM: 113
- molecule: "CCn1nc(C(=O)NC[C@]2(O)CC[C@@H](S(C)(=O)=O)CC2)c(C)c1-c1ccc(CCCC(F)(F)F)cc1OC(F)F"
  unitDescriptor: "%"
  inhibition at 0.67 µM: 99

(I) CCn1nc(C(=O)NC[C@]2(O)CC[C@@H](S(C)(=O)=O)CC2)c(Cl)c1-c1ccc(CC(C)(C)C(F)(F)F)cc1F
(II) CCn1nc(C(=O)NC[C@H]2CC[C@H](S(C)(=O)=O)CC2)c(Cl)c1-c1ccc(CCC(C)C)cc1OC
### Prompt Which item exceeds the other in inhibition at 0.67 µM, I or II ? State the label of the item chosen.
### Response I

----------
- systemName: UniProtKB P51449
- methodDescription: RORγt (full-length human) reporter assay, conditions A or B, HEK293T cells
- Format: cell-based
- condition: HEK-293T; 0.22 μM compound concentration (footnote *******); read-out: RORγt (FL) Reporter Assay A or B, % inhibition
propertyLabel: inhibition at […] (%)

- smilesData: "CCn1nc(C(=O)NC[C@H]2CC[C@H](S(C)(=O)=O)CC2)c(Cl)c1-c1ccc(CC(C)(C)C(F)(F)F)cc1OC(F)F"
  val: 94
- smilesData: "CCn1nc(C(=O)NC[C@H]2CC[C@H](S(C)(=O)=O)CC2)c(Cl)c1-c1ccc(CC(C)(C)C(F)(F)F)cc1F"
  val: 77
- smilesData: "CCn1nc(C(=O)NC[C@]2(O)CC[C@@H](S(C)(=O)=O)CC2)c(Cl)c1-c1ccc(CC(C)(C)C(F)(F)F)cc1C(F)(F)F"
  val: 78
- smilesData: "CCn1nc(C(=O)NC[C@]2(O)CC[C@@H](S(C)(=O)=O)CC2)c(Cl)c1-c1ccc(CC(C)(C)C(F)(F)F)cc1C"
  val: 70
- smilesData: "CCn1nc(C(=O)NC[C@H]2CC[C@H](S(C)(=O)=O)CC2)c(C)c1-c1ccc(CCCC(F)(F)F)cc1OC(F)F"
  val: 93
- smilesData: "CCn1nc(C(=O)NC[C@H]2CC[C@H](S(C)(=O)=O)CC2)c(Cl)c1-c1ccc(CC(C)(C)C(F)(F)F)cc1"
  val: 71

----------
- systemName: full-length human RORγt (Homo sapiens (Human))
- methodDescription: RORγt (full-length human) reporter assay, conditions A or B, HEK293T cells
- Type: cell-based
- condition: HEK-293T; 0.22 μM compound concentration (footnote *******); read-out: RORγt (FL) Reporter Assay A or B, % inhibition
propertyLabel: inhibition at […] (%)

Here is how some molecules turned out for inhibition at […].
- molecule: "CCn1nc(C(=O)NC[C@]2(C#N)CC[C@@H](S(C)(=O)=O)CC2)c(Cl)c1-c1ccc(CC(C)(C)C(F)(F)F)cc1"
  inhibition at […] [%]: 85
- molecule: "CCn1nc(C(=O)NC[C@]2(O)CC[C@@H](S(C)(=O)=O)CC2)c(C)c1-c1ccc(CC(C)(C)C(F)(F)F)cc1OC(F)F"
  inhibition at […] [%]: 101
- molecule: "CCn1nc(C(=O)NC[C@]2(C#N)CC[C@@H](S(C)(=O)=O)CC2)c(Cl)c1-c1ccc(CC(C)(C)C(F)(F)F)cc1OC(F)F"
  inhibition at […] [%]: 102
- molecule: "CCn1nc(C(=O)NC[C@@H]2CC[C@@H](S(C)(=O)=O)CO2)c(Cl)c1-c1ccc(CC(C)(C)C(F)(F)F)cc1OC(F)F (racemic)"
  inhibition at […] [%]: 99

(a) CCn1nc(C(=O)NC[C@H]2CC[C@H](S(C)(=O)=O)CC2)c(Cl)c1-c1ccc(CCCC(F)(F)F)cc1OC(F)F
(b) CCn1nc(C(=O)NC[C@H]2CC[C@H](S(C)(=O)=O)CC2)c(Cl)c1-c1ccc(CC(C)(C)C(F)(F)F)cc1C(F)(F)F
### Prompt Of the pair a and b , name the member with the lesser recorded inhibition at […]. State the label of the item chosen.
### Response b

----------
- systemName: full-length human RORγt (Homo sapiens (Human), UniProt P51449)
- Sequence (P51449 other isoform, or with tags, fused parts or gaps): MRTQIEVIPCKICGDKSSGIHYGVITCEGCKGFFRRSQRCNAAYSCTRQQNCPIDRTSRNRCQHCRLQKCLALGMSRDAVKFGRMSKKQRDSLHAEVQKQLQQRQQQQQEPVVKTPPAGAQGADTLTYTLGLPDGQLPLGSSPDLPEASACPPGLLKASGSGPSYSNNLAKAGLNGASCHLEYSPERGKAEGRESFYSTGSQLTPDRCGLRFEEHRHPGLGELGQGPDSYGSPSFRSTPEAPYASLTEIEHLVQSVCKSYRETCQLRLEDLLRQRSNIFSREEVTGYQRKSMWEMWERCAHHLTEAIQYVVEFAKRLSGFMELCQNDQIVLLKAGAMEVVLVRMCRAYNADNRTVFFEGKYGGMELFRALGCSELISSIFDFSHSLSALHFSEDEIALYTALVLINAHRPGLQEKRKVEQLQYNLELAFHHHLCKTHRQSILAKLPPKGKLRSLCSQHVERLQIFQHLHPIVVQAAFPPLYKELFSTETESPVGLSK
- methodDescription: RORγt (full-length human) reporter assay, conditions A or B, HEK293T cells
- Assay type: cell-based
- condition: RORγt (FL) Reporter Assay A or B, IC50, HEK293T cells
- Method: RORγt (Full-Length Human) Reporter Assay: HEK293T cells were plated at 35,000 per well in 96-well plate in medium of DMEM with 10% FBS. […] Firefly luciferase luminescence was measured using a BMG Pherastar plate reader. […] Renilla luminescence was measured using a BMG Pherastar plate reader. […] IC50s were generated by plotting final Renilla normalized data against compound concentration and percent inhibition was calculated against DMSO control. […]
Structures can show the parent of a compound that is named as a salt.
propertyLabel: IC50 (nM)

- molecule: "CCn1nc(C(=O)NC[C@]2(C#N)CC[C@@H](S(C)(=O)=O)CC2)c(Cl)c1-c1ccc(CC(C)(C)C(F)(F)F)cc1Cl"
  systemName: "full-length human RORγt (Homo sapiens (Human), UniProt P51449)"
  propertyLabel: "IC50"
  val: 0.92
- molecule: "CCn1nc(C(=O)NC[C@H]2CC[C@H](S(C)(=O)=O)CC2)c(Cl)c1-c1ccc(CC(C(F)(F)F)C(F)(F)F)cc1OC"
  systemName: "full-length human RORγt (Homo sapiens (Human), UniProt P51449)"
  propertyLabel: "IC50"
  val: 10
- molecule: "COCCn1nc(C(=O)NC[C@H]2CC[C@H](S(C)(=O)=O)CC2)c(Cl)c1-c1ccc(N[C@H](C)C(F)(F)F)cc1OC"
  systemName: "full-length human RORγt (Homo sapiens (Human), UniProt P51449)"
  propertyLabel: "IC50"
  val: 110
- molecule: "CCn1nc(C(=O)NC[C@H]2CC[C@H](S(C)(=O)=O)CC2)c(Cl)c1-c1ccc(C[C@H](C)C(F)(F)F)cc1OC(F)F (single isomer, unassigned)"
  systemName: "full-length human RORγt (Homo sapiens (Human), UniProt P51449)"
  propertyLabel: "IC50"
  val: 10
- molecule: "CCn1nc(C(=O)NC[C@]2(O)CC[C@@H](S(C)(=O)=O)C[C@H]2O)c(C)c1-c1ccc(C[C@@H](C)C(F)(F)F)cc1OC(F)F (stereo in doubt)"
  systemName: "full-length human RORγt (Homo sapiens (Human), UniProt P51449)"
  propertyLabel: "IC50"
  val: 15

(P) CCn1nc(C(=O)NC[C@]2(O)CC[C@@H](S(C)(=O)=O)CC2)c(C#N)c1-c1ccc(CC(C)C(F)(F)F)cc1OC (stereo partly shown)
(Q) CCn1nc(C(=O)NC[C@]2(O)CC[C@@H](S(N)(=O)=O)CC2)c(C)c1-c1ccc(C[C@H](C)C(F)(F)F)cc1OC(F)F (single isomer, unassigned)
(R) CCn1nc(C(=O)NC[C@H]2CC[C@H](S(C)(=O)=O)CC2)c(Cl)c1-c1ccc(C2(O)CCC(C(F)(F)F)CC2)cc1OC(F)F (single isomer, unassigned) [Example 114]
### Prompt Please list these molecules in decreasing order of IC50. Use the labels to give the requested order.
### Response R, P, Q

(a) CCn1nc(C(=O)NC[C@]2(O)CC[C@@H](S(C)(=O)=O)CC2)c(Cl)c1-c1ccc([C@@](C)(O)CC(F)(F)F)cc1OC(F)F (single isomer, unassigned)
(b) CCn1nc(C(=O)NC[C@@]2(O)CC[C@H](S(C)(=O)=O)C[C@@H]2N)c(Cl)c1-c1ccc(CC(C)(C)C(F)(F)F)cc1OC(F)F (stereo in doubt) [Example 7, hydrobromide]
### Prompt Of the pair a and b , name the member with the lesser recorded IC50. State the label of the item chosen.
### Response b

(A) CC(C)(Cc1ccc(-c2c(Cl)c(C(=O)NC[C@]3(O)CC[C@@H](S(C)(=O)=O)CC3)nn2CCCC#N)c(OC(F)F)c1)C(F)(F)F
(B) CCn1nc(C(=O)NC[C@H]2CC[C@H](S(C)(=O)=O)CC2)c(Cl)c1-c1ccc(CC(C)(C)C(F)(F)F)cc1C(F)(F)F
### Prompt Which item exceeds the other in IC50, A or B ? State the label of the item chosen.
### Response A

Each recorded value in this set is attributed to patent US10975037B2.
